Target: T1, FLAG epitope-tagged holoreceptor of human type 1 insulin-like growth factor receptor (human, UniProt P08069 31-1367, limits assumed)
T1 construct: mature; Holoreceptor captured on 96 well plates coated with anti-FLAG monoclonal antibody; The natural receptor is processed from one precursor into alpha and beta chains; also called hIGFR; IGF-1R
Test: ratio of dissociation constants from competitive displacement of 125I-IGF-I on plate-captured FLAG-tagged hIGFR; relative to insulin lispro
From the text: Cross-reactivity of the single-chain insulin analogues with IGF-1R was studied using a FLAG epitope-tagged holoreceptor to human type 1 insulin-like growth factor receptor (hIGFR) bound to 96 well plates coated with anti-FLAG monoclonal antibody. […] This is used as a marker for mitogenic potential, where less IGF-R affinity is interpreted as lower mitogenic potential.
OBSERVATION TYPE: IGF1-R (Rel. Aff.) (%)
Please respond with the number in % and leave the unit unwritten.

Solved cases below.
BINDER | OBSERVATION TYPE | ASSAY VALUE
single-chain insulin HA8, EA14, NB17, PE, EEGPRR (ligand) FVNQHLCGSHLVEALYNVCGERGFFYTPETEEGPRRGIVEQCCHSICSLEQLENYCN | IGF1-R (Rel. Aff.) | 2
single-chain insulin EA8, EA14, QA17, PE, EAGPRR (ligand, Single-chain insulin analogue (B domain, 6-residue C domain, A domain)) FVNQHLCGSHLVEALYLVCGERGFFYTPETEAGPRRGIVEQCCESICSLEQLQNYCN | IGF1-R (Rel. Aff.) | 11
single-chain insulin HA8, EA14, FB17, PE, EEGPRR (ligand) FVNQHLCGSHLVEALYFVCGERGFFYTPETEEGPRRGIVEQCCHSICSLEQLENYCN | IGF1-R (Rel. Aff.) | 16

Inquiry: Fill in IGF1-R (Rel. Aff.) for record single-chain insulin EA8, EA14, RA17, PE, EAGPRR (ligand) FVNQHLCGSHLVEALYLVCGERGFFYTPETEAGPRRGIVEQCCESICSLEQLRNYCN
Reply text: 25

Inquiry: Output measured IGF1-R (Rel. Aff.) for this item: single-chain insulin EA8, EA14, RA17, EP, EAGPRR (ligand) FVNQHLCGSHLVEALYLVCGERGFFYTEPTEAGPRRGIVEQCCESICSLEQLRNYCN
Reply text: 5

Inquiry: Answer with the recorded IGF1-R (Rel. Aff.) for the binder listed here: single-chain insulin HA8, EA14, QA17, PE, EAGPRR (ligand) FVNQHLCGSHLVEALYLVCGERGFFYTPETEAGPRRGIVEQCCHSICSLEQLQNYCN
Reply text: 18
